Biological target: human GLP-1 receptor (GLP-1R), expressed on CHO-K1 cells (human, UniProt P43220 24-463)
Assay: cell-based or functional assay
Numbered stars: 1 amine (or outer) side, 2 acyl side, 3 side chain; on linkers, the order of the positions; unused ones are H or OH. Square brackets hold non-standard residues; d marks the D form. Side chains are listed from the residue outwards. Ends that are not written are not given here. * marks the point of attachment. C18 = C18 fatty acid (C16-C22 fatty acids conjugated via γGlu/8-amino-3,6-dioxaoctanoic acid spacers); Biotin = O=C1N[C@H]2[C@H](CS[C@H]2CCCCC(=O)*)N1; γGlu = O=C(O)[C@H](CCC(=O)[*:2])N[*:1]; biotin‑maleimide = B1-MAL; AEEA = NCCOCCOCC(=O)O; Aib = CC(C)(N)C(=O)O; MAL = maleimide
quantity name: EC50 (nM), cAMP assay
Answers are plain numbers, in nM.

Here's what some known entries look like.
H[Aib]QGTFTSDYSKYLDYMMARDFVQWLIEGGPSSGAPPPSC([MAL-AEEA-AEEA-γGlu-C18])-NH2 [Peptide No. 5A (peptide 5, A type: lipid at Cys40)]
0.187
H[Aib]QGTFTSDYSK(Biotin)YLDYMMARDFVQWLIEGGPSSGAPPPSC([MAL-AEEA-AEEA-γGlu-C18])-NH2 [Peptide No. 5B (peptide 5, B type: lipid at Cys40 and biotin at Lys12)]
0.18
H[Aib]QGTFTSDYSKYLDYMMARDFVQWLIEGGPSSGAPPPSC [Peptide No. 5 (with C-terminal cysteine)]
0.0605

Okay, now this binder:
Quick one: give measured EC50 (nM), cAMP assay for H[Aib]QGTFTSDYSK([AEEA-AEEA-γGlu-C18])YLDYMMARDFVQWLIEGGPSSGAPPPSC(biotin‑maleimide)-NH2 [Peptide No. 5C (peptide 5, C type: lipid at Lys12 and biotin at Cys40)]
0.0772
